Values from patent US11377442B2

target: NR2F6 (Homo sapiens); construct: expressed in transfected cells; also transient transfection; assay: NR2F6 agonist screening, Firefly signal cmpd/DMSO; type: cell-based; settings: mean of repeats
Sequence (P10588 whole entry): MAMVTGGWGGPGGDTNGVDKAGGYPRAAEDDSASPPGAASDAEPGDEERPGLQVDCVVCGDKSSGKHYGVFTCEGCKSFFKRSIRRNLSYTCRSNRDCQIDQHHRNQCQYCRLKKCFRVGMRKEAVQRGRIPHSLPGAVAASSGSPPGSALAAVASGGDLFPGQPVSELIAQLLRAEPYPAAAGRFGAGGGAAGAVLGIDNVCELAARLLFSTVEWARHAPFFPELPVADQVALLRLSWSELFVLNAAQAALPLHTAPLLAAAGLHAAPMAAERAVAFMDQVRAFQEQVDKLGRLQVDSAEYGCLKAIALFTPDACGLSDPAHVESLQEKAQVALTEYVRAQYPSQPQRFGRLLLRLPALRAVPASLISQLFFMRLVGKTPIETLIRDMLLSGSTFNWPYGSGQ

{"Compound": "COc1ccc(NC(=O)c2ccc3nc(-c4ccccc4)cn3c2)c(OC)c1 [Compound P1]", "Firefly, cmpd/DMSO (mean)": 3.5}
{"Compound": "CCOC(=O)c1cnc2c(C)cc(C)cc2c1NCCCN(C)C [Compound D28]", "Firefly, cmpd/DMSO (mean)": 12.8}
{"Compound": "Cc1cc(C)nc(Sc2nnc(-c3ccc(C)c(S(=O)(=O)N4CCOCC4)c3)c3ccccc23)n1 [Compound F1]", "Firefly, cmpd/DMSO (mean)": 5.1}
{"Compound": "Cc1cc(C)n2nc(CNS(=O)(=O)c3c(F)c(F)c(F)c(F)c3F)nc2n1 [Compound E21]", "Firefly, cmpd/DMSO (mean)": 7.3}

###

test: PK in rat plasma; type: in vivo; settings: rat; Table 36; PO plasma, 7.53 mg/kg

{"Record smiles": "COCCN[C@H]1CS(=O)(=O)C[C@@H]1S(=O)(=O)c1ccc(Cl)cc1", "AUC(0-inf), ng·h/mL": 208}

###

molecular target: NR2F6 (Homo sapiens); construct: expressed in transfected cells; also transient transfection; assay: NR2F6 agonist screening, Firefly signal cmpd/DMSO; format: cell-based; conditions: C11 analogs follow set (Tables 2-10), repeat 1
Output label 1 for Firefly, cmpd/DMSO repeat 1 not less than 3; output label 0 otherwise.

{"Record smiles": "COc1ccc(NC(=O)c2ccc3oc(=O)c(S(=O)(=O)c4ccccc4)cc3c2)cc1", "Cat": "label 1"}
{"Record smiles": "O=C(Nc1ccc(Cl)cc1)c1ccc2oc(=O)c(S(=O)(=O)c3ccc(F)cc3)cc2c1", "Cat": "label 0"}
{"Record smiles": "O=c1oc2ccc(Cl)cc2cc1S(=O)(=O)c1ccc(Cl)c(Cl)c1", "Cat": "label 1"}
{"Record smiles": "Cc1ccc(S(=O)(=O)c2cc3cc(Cl)ccc3oc2=O)cc1", "Cat": "label 1"}
{"Record smiles": "COc1ccc2oc(=O)c(S(=O)(=O)c3ccc(C(C)(C)C)cc3)cc2c1", "Cat": "label 1"}
{"Record smiles": "Cc1cc(C)cc(NC(=O)c2ccc3oc(=O)c(S(=O)(=O)c4ccccc4)cc3c2)c1", "Cat": "label 1"}
{"Record smiles": "Cc1ccc(S(=O)(=O)c2cc3cc(Cl)ccc3oc2=O)cc1Cl", "Cat": "label 1"}
{"Record smiles": "Cc1ccc(S(=O)(=O)c2cc3cc(Br)ccc3oc2=O)cc1", "Cat": "label 1"}
{"Record smiles": "CC(C)(C)c1ccc(S(=O)(=O)c2cc3cc(Br)ccc3oc2=O)cc1", "Cat": "label 1"}
{"Record smiles": "Cc1ccc(S(=O)(=O)c2cc3ccccc3oc2=O)cc1C", "Cat": "label 1"}
{"Record smiles": "Cc1cccc(NC(=O)c2ccc3oc(=O)c(S(=O)(=O)c4ccc(F)cc4)cc3c2)c1C", "Cat": "label 1"}
{"Record smiles": "COc1ccc2oc(=O)c(S(=O)(=O)c3ccccc3)cc2c1", "Cat": "label 0"}
{"Record smiles": "O=C(NCc1ccccc1)c1ccc2oc(=O)c(S(=O)(=O)c3ccccc3)cc2c1", "Cat": "label 1"}
{"Record smiles": "Cc1cc(S(=O)(=O)c2cc3cc(Cl)ccc3oc2=O)ccc1F", "Cat": "label 1"}
{"Record smiles": "COc1ccc2cc(S(=O)(=O)c3ccc(C)cc3)c(=O)oc2c1", "Cat": "label 0"}
{"Record smiles": "O=c1oc2ccccc2cc1S(=O)(=O)c1ccccc1F", "Cat": "label 1"}
{"Record smiles": "COc1ccc(CNC(=O)c2ccc3oc(=O)c(S(=O)(=O)c4ccc(F)cc4)cc3c2)cc1", "Cat": "label 1"}
{"Record smiles": "Cc1ccc(S(=O)(=O)c2cc3cc(C(=O)Nc4cccc(C)c4)ccc3oc2=O)cc1", "Cat": "label 1"}
{"Record smiles": "Cc1ccc(NC(=O)c2ccc3oc(=O)c(S(=O)(=O)c4ccccc4)cc3c2)c(C)c1", "Cat": "label 1"}
{"Record smiles": "Cc1ccc(NC(=O)c2ccc3oc(=O)c(S(=O)(=O)c4ccc(C)cc4)cc3c2)cc1", "Cat": "label 1"}
{"Record smiles": "COc1ccc2cc(S(=O)(=O)c3cccc(C#N)c3)c(=O)oc2c1", "Cat": "label 0"}
{"Record smiles": "COC(=O)c1ccc2oc(=O)c(S(=O)(=O)c3ccc(OC)cc3)cc2c1", "Cat": "label 1"}
{"Record smiles": "COc1ccc2cc(S(=O)(=O)c3ccc(Br)cc3)c(=O)oc2c1", "Cat": "label 0"}
{"Record smiles": "COC(=O)c1ccc2oc(=O)c(S(=O)(=O)c3ccc(Cl)cc3)cc2c1", "Cat": "label 0"}
{"Record smiles": "Cc1ccc(S(=O)(=O)c2cc3cc(C(=O)Nc4ccc(C)c(C)c4)ccc3oc2=O)cc1", "Cat": "label 1"}
{"Record smiles": "Cc1ccc(NC(=O)c2ccc3oc(=O)c(S(=O)(=O)c4ccc(Cl)cc4)cc3c2)cc1C", "Cat": "label 0"}
{"Record smiles": "O=c1oc2ccc(Br)cc2cc1S(=O)(=O)c1ccc(F)cc1", "Cat": "label 0"}
{"Record smiles": "CCN(CC)c1ccc2cc(S(=O)(=O)c3ccc(C)cc3)c(=O)oc2c1", "Cat": "label 1"}
{"Record smiles": "COc1ccc2oc(=O)c(S(=O)(=O)c3ccc(OC)c(OC)c3)cc2c1", "Cat": "label 0"}
{"Record smiles": "COc1ccccc1NC(=O)c1ccc2oc(=O)c(S(=O)(=O)c3ccc(Cl)cc3)cc2c1", "Cat": "label 1"}
{"Record smiles": "Cc1cc(S(=O)(=O)c2cc3cc(Br)ccc3oc2=O)ccc1F", "Cat": "label 1"}
{"Record smiles": "COc1ccc2cc(S(=O)(=O)c3ccc(F)c(C)c3)c(=O)oc2c1", "Cat": "label 0"}
{"Record smiles": "COc1ccc2cc(S(=O)(=O)c3ccc(F)c(Cl)c3)c(=O)oc2c1", "Cat": "label 0"}
{"Record smiles": "COc1ccc2oc(=O)c(S(=O)(=O)c3ccc(F)c(C)c3)cc2c1", "Cat": "label 0"}
